The values you see were collected from paper PMC10042540.

- study-system: KRasWT1-169 (Homo sapiens)
- Sequence (P01116 1-169): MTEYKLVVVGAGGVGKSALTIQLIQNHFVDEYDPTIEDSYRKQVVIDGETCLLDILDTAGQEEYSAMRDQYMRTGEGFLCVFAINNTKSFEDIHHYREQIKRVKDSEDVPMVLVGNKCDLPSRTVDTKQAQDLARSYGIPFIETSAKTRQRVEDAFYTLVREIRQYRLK
- assay: HPLC-based approach for determination of affinities relative to GDP
- Type: binding
- condition-info: worked calculation KD = 1/KA, Equation 10a/10b
Each item that follows carries a reported Kd.
Express it in pM; write the number only.

molecule: C=CC(=O)NCCCCNC(=O)O[C@H]1[C@@H](O)[C@H](n2cnc3c(=O)[nH]c(N)nc32)O[C@@H]1COP(=O)(O)OP(=O)(O)O [bdaGDP]
reading-unit: pM
Kd: 8.9

Continue with the next molecule.
Field Kd (entry C=CC(=O)NCCCNC(=O)O[C@H]1[C@@H](O)[C@H](n2cnc3c(=O)[nH]c(N)nc32)O[C@@H]1COP(=O)(O)OP(=O)(O)O [pdaGDP] ) reads 7.4
